Test: Serum stability test (HPLC)
Type: in vitro ADME, mouse
Conditions: 25% v/v mouse serum in 1× PBS, 37 °C, 10 nmol probe, HPLC UV 646 nm, peak area normalized to 10 min, n = 3; read-out: percent of the peptides proteolyzed after 24 h of serum incubation
Square brackets hold non-standard residues; d marks the D form. Peptide text beside a SMILES is read from it. * marks the point of attachment. X1 = CN1/C(=C/C=C/C=C/C2=[N+](CCCCCC(=O)*)c3ccc(S(=O)(=O)[O-])cc3C2(C)C)C(C)(C)c2cc(S(=O)(=O)O)ccc21; Hyp = O=C(O)[C@@H]1C[C@@H](O)CN1; Ahx = NCCCCCC(=O)O
observable: metabolised at 24 h

[[record]]
compound = "CN1/C(=C/C=C/C=C/C2=[N+](CCCCCC(=O)NCCCCCC(=O)NCC(=O)N3C[C@H](O)C[C@H]3C(=O)NCC(=O)N3C[C@H](O)C[C@H]3C(=O)NCC(=O)N3C[C@H](O)C[C@H]3C(=O)NCC(=O)N3C[C@H](O)C[C@H]3C(=O)NCC(=O)N3C[C@H](O)C[C@H]3C(=O)NCC(=O)N3C[C@H](O)C[C@H]3C(=O)NCC(=O)N3C[C@H](O)C[C@H]3C(N)=O)c3ccc(S(=O)(=O)[O-])cc3C2(C)C)C(C)(C)c2cc(S(=O)(=O)O)ccc21 [Cy5‐(GO)7] ({X1-Ahx}-G[Hyp]G[Hyp]G[Hyp]G[Hyp]G[Hyp]G[Hyp]G[Hyp]-NH2)"
observedvalue = "~25%"


Ref: paper PMC12631873
